# subject of test: human 20S proteasome
# Construct: isolated from human erythrocytes (Enzo Life Sciences); purchased Enzo Life Sciences; host or cells: human erythrocytes
# run description: ChT-L peptidase activity of SDS-activated human 20S proteasome (SucLLVY-MCA)
# Format: biochemical
# reported conditions: ChT-L activity; Repetition 2; read-out: Calculated IC50
Ends that are not written are not given here.
endpoint: pIC50
Scale for pIC50: -log10 of concentration given in mol/L; no unit attached.

Per the records, this sequence ( GRKAARQAARPS [Tat1_A4-5,8–9] ) has pIC50 equal to 5.46

---

# subject of test: human 20S proteasome
# Construct: isolated from human erythrocytes (Enzo Life Sciences); purchased Enzo Life Sciences; host or cells: human erythrocytes
# run description: Microscale thermophoresis with fluorescently labeled human 20S proteasome
# Assay type: binding
# reported conditions: MST Hill fit; Repetition 3; concentrations listed in nM; read-out: EC50, fitted value (Hill method)
Ends that are not written are not given here.
endpoint: EC50 (nM)
Kindly answer with a numeric value in nM, unit omitted.

Data point: GRKKRRQAAAPS [Tat1_A8-10] ; EC50 = 13800

// GRKAAAQRRRPS [Tat1_A4-6] : EC50 value = 12000

---

# subject of test: human 20S proteasome
# Construct: isolated from human erythrocytes (Enzo Life Sciences); purchased Enzo Life Sciences; host or cells: human erythrocytes
# run description: ChT-L peptidase activity of SDS-activated human 20S proteasome (SucLLVY-MCA)
# Assay type: biochemical
# reported conditions: ChT-L peptidase; 1.5 nM 20S from human erythrocytes activated with 0.01% SDS; 100 μM SucLLVY-MCA; 50 mM Tris/HCl pH 8.0, 0.5 mM EDTA; 37°C; mean (±SD); read-out: IC50
Ends that are not written are not given here.
endpoint: pIC50
Quick note: pIC50 values are minus log10 of concentrations in mol/L.

pIC50 reading for GRKKRAAARRPS [Tat1_A6-8] : 6.47

The sequence GRKKRRQAAAPS [Tat1_A8-10] showed pIC50 equal to 5.60

// sample GRKKAAQRRRPS [Tat1_A5-6] , its pIC50 was 6.49

The sequence listed as GRKAARQAARPS [Tat1_A4-5,8–9] has a reported pIC50 of 5.33

# pIC50 of GRKKARAAARPS [Tat1_A5,7–9] = 5.82

Measured pIC50 of GRAAARQRRRPS [Tat1_A3-5] : 5.80

---

I'd appreciate it if you could supply pIC50 values for the items below.
# subject of test: human 20S proteasome
# Construct: isolated from human erythrocytes (Enzo Life Sciences); purchased Enzo Life Sciences; host or cells: human erythrocytes
# run description: ChT-L peptidase activity of SDS-activated human 20S proteasome (SucLLVY-MCA)
# Format: biochemical
# reported conditions: ChT-L peptidase; 1.5 nM 20S from human erythrocytes activated with 0.01% SDS; 100 μM SucLLVY-MCA; 50 mM Tris/HCl pH 8.0, 0.5 mM EDTA; 37°C; mean (±SD); read-out: IC50
Square brackets hold non-standard residues; d marks the D form. Peptide text beside a SMILES is read from it. Oic = O=C(O)[C@@H]1C[C@@H]2CCCC[C@@H]2N1; dOic = O=C(O)[C@H]1C[C@H]2CCCC[C@H]2N1; Tic = O=C(O)[C@@H]1Cc2ccccc2CN1; dTic = O=C(O)[C@H]1Cc2ccccc2CN1
Entry type: numeric. Quantity: pIC50, the -log10 of concentration in molar units.

// sample N=C(N)NCCC[C@H](NC(=O)CN)C(=O)N[C@@H](CCCCN)C(=O)N1Cc2ccccc2C[C@@H]1C(=O)N1[C@H](C(=O)N[C@@H](CCCNC(=N)N)C(=O)N[C@@H](CCC(N)=O)C(=O)N[C@@H](CCCNC(=N)N)C(=O)N[C@@H](CCCNC(=N)N)C(=O)N[C@@H](CCCNC(=N)N)C(=O)N2CCC[C@H]2C(=O)N[C@@H](CO)C(=O)O)C[C@@H]2CCCC[C@@H]21 [Tat1_4-5TO] (HELM PEPTIDE1{G.R.K.[O=C([C@H]1Cc2ccccc2CN1[*:1])[*:2]].[O=C([C@@H]1C[C@@H]2CCCC[C@@H]2N1[*:1])[*:2]].R.Q.R.R.R.P.S}$$$$V2.0) , its pIC50 was 6.62

pIC50 reported for this compound N=C(N)NCCC[C@H](NC(=O)CN)C(=O)N[C@@H](CCCCN)C(=O)N[C@@H](CCCCN)C(=O)N[C@@H](CCCNC(=N)N)C(=O)N[C@@H](CCCNC(=N)N)C(=O)N[C@@H](CCC(N)=O)C(=O)N1Cc2ccccc2C[C@@H]1C(=O)N1[C@H](C(=O)N[C@@H](CCCNC(=N)N)C(=O)N2CCC[C@H]2C(=O)N[C@@H](CO)C(=O)O)C[C@@H]2CCCC[C@@H]21 [Tat1_8-9TO] : 6.77

pIC50 recorded for this compound, N=C(N)NCCC[C@H](NC(=O)CN)C(=O)N[C@@H](CCCCN)C(=O)N1Cc2ccccc2C[C@@H]1C(=O)N1[C@H](C(=O)N[C@@H](CCCNC(=N)N)C(=O)N[C@@H](CCC(N)=O)C(=O)N2Cc3ccccc3C[C@H]2C(=O)N2[C@@H](C(=O)N[C@@H](CCCNC(=N)N)C(=O)N3CCC[C@H]3C(=O)N[C@@H](CO)C(=O)O)C[C@H]3CCCC[C@H]32)C[C@@H]2CCCC[C@@H]21 [Tat1_4-5TO,8-9TOD] (H-GRK[dTic][Oic]RQ[Tic][dOic]RPS-OH) , is 6.62

Sure, the documented pIC50 for N=C(N)NCCC[C@H](NC(=O)CN)C(=O)N[C@@H](CCCCN)C(=O)N[C@@H](CCCCN)C(=O)N[C@@H](CCCNC(=N)N)C(=O)N[C@@H](CCCNC(=N)N)C(=O)N[C@@H](CCC(N)=O)C(=O)N1Cc2ccccc2C[C@H]1C(=O)N1[C@@H](C(=O)N[C@@H](CCCNC(=N)N)C(=O)N2CCC[C@H]2C(=O)N[C@@H](CO)C(=O)O)C[C@H]2CCCC[C@H]21 [Tat1_8-9TOD] is 6.92
